EXPERIMENTAL SYSTEM: human orexin-2 receptor (Homo sapiens, UniProt O43614)
Construct: expressed in transfected cells; host or cells: CHO cells (G418 selection)
Sequence (O43614 whole entry): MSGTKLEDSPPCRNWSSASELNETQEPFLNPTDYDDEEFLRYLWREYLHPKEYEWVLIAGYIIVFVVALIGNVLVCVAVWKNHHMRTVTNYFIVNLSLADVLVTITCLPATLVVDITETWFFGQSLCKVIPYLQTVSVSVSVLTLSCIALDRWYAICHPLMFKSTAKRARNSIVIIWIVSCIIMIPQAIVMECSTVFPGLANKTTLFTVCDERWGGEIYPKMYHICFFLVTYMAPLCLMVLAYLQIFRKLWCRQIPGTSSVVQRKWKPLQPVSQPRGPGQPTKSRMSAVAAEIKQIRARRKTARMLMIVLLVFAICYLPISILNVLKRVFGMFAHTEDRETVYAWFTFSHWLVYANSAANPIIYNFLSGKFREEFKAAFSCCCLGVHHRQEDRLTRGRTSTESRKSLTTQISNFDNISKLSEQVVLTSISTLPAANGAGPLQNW
PROTOCOL TEXT: Intracellular calcium measurement (FLIPR), OX2 receptor antagonistic activity
Assay type: cell-based
PROTOCOL CONDITIONS: CHO cells expressing human orexin-2 receptor, agonist 10 nM human orexin-A, fluo-3 calcium
Mark each entry Yes if its IC50 sits below 20 nM, and No for all others.

[
  {
    "COMPOUND": "C[C@@H](c1ccccc1)N(C(=O)Nc1ccccc1OC(F)(F)F)C1CCn2c1nc1cccc(C(F)(F)F)c1c2=O (some centres unmarked)",
    "EXPERIMENTAL SYSTEM": "human orexin-2 receptor (Homo sapiens, UniProt O43614)",
    "LABEL": "Yes"
  },
  {
    "COMPOUND": "CC(c1ccccc1)N(C(=O)Nc1ccccc1OC(F)(F)F)C1CCn2c1nc1cccc(Cl)c1c2=O (centres unmarked)",
    "EXPERIMENTAL SYSTEM": "human orexin-2 receptor (Homo sapiens, UniProt O43614)",
    "LABEL": "Yes"
  },
  {
    "COMPOUND": "CCOc1ccccc1NC(=O)N(C(C)c1ccccc1)C1CCn2c1nc1ccccc1c2=O (centres unmarked)",
    "EXPERIMENTAL SYSTEM": "human orexin-2 receptor (Homo sapiens, UniProt O43614)",
    "LABEL": "No"
  },
  {
    "COMPOUND": "CCCc1ccccc1NC(=O)N(C(C)c1ccccc1)C1CCCn2c1nc1cc(F)c(F)cc1c2=O (centres unmarked)",
    "EXPERIMENTAL SYSTEM": "human orexin-2 receptor (Homo sapiens, UniProt O43614)",
    "LABEL": "Yes"
  },
  {
    "COMPOUND": "CCc1ccccc1NC(=O)N(C1CCn2c1nc1cccc(C(F)(F)F)c1c2=O)[C@@H](C)c1ccccc1 (some centres unmarked)",
    "EXPERIMENTAL SYSTEM": "human orexin-2 receptor (Homo sapiens, UniProt O43614)",
    "LABEL": "No"
  },
  {
    "COMPOUND": "CC(c1ccccc1)N(C(=O)Nc1ccccc1OC(F)(F)F)C1CCn2c1nc1cc(F)ccc1c2=O (centres unmarked)",
    "EXPERIMENTAL SYSTEM": "human orexin-2 receptor (Homo sapiens, UniProt O43614)",
    "LABEL": "No"
  },
  {
    "COMPOUND": "CCc1ccccc1NC(=O)N(C(C)c1ccccc1)C1CCCn2c1nc1cc(F)c(F)cc1c2=O (centres unmarked)",
    "EXPERIMENTAL SYSTEM": "human orexin-2 receptor (Homo sapiens, UniProt O43614)",
    "LABEL": "Yes"
  },
  {
    "COMPOUND": "CC(c1ccccc1)N(C(=O)Nc1ccccc1-c1ccccc1)C1CCn2c1nc1cccc(Cl)c1c2=O (centres unmarked)",
    "EXPERIMENTAL SYSTEM": "human orexin-2 receptor (Homo sapiens, UniProt O43614)",
    "LABEL": "Yes"
  }
]

Consider the compound CCCc1ccccc1NC(=O)N(C(C)c1ccccc1)C1CCn2c1nc1cccc(Cl)c1c2=O (centres unmarked) . Is its IC50 strictly less than 20 nM?
No

Consider the compound CCCc1ccccc1NC(=O)N(C(C)c1ccccc1)C1CCCn2c1nc1cc(F)ccc1c2=O (centres unmarked) . Is its IC50 strictly less than 20 nM?
Yes

Consider the compound CCCc1ccccc1NC(=O)N(C1CCn2c1nc1cccc(C(F)(F)F)c1c2=O)[C@@H](C)c1ccccc1 (some centres unmarked) . Is its IC50 strictly less than 20 nM?
Yes
